- experimentalDetails: Biodistribution experiments in normal mice after i.v. injection
- Assay type: in vivo
- experimentalParameters: male, ddY, mouse, in vivo, iv, total radioactivity, mice, i.v., 10 min after injection, mean (SD); read-out: Biodistribution of radioactivity, Spleen
Where a SMILES comes first, the peptide text is derived from it. [ ]: non-standard residue; d: D form. The star is where a group is joined. DOTA = O=C(O)CN1CCN(CC(=O)O)CCN(CC(=O)*)CCN(CC(=O)O)CC1
recordedEndpoint: tissue uptake dose at 10 min (%ID)
Please state the figure in %ID; there is no need to write the unit.

stdin: Given the compound O=C(O)C[C@@H](NC(=O)[C@@H](CC(=O)O)NC(=O)[C@@H](CC(=O)O)NC(=O)[C@@H](CC(=O)O)NC(=O)[C@@H](CC(=O)O)NC(=O)[C@@H](CC(=O)O)NC(=O)[C@@H](CC(=O)O)NC(=O)[C@@H](CC(=O)O)NC(=O)[C@@H](CC(=O)O)NC(=O)[C@@H](CC(=O)O)NC(=O)[C@@H](CC(=O)O)NC(=O)CN1CCN(CC(=O)O)CCN(CC(=O)O)CCN(CC(=O)O)CC1)C(=O)O [^67Ga-DOTA-(D-Asp)11, metal not drawn] ({DOTA}-[dD][dD][dD][dD][dD][dD][dD][dD][dD][dD][dD]-OH) , what is its reported tissue uptake dose at 10 min?
stdout: 0.44
